Where these numbers come from: the nanobody polyreactivity screen of Harvey et al. (2022)

test-method-notes: yeast display, Sf9 membrane polyspecificity reagent, FACS + sequencing; frameworks hold sequencing errors

primary-sequence: QVQLVDSGGGLVQAGGSLRLSCAASGRTSRRYAMGWYRQEPGKERELVAAIRGSGGSTYYADSVKGRFTISRDNAKNTVYLQMNSLKPEDTAVYYCAARSPRASGNSDYWGQGTQVTVSS
polyreactivity (PSR sort gate): high polyreactivity
--
primary-sequence: QVQLVESGGGLVQAGGSLRLSCAASGSIFGRYGAIGWYRQAPGKERELVAAINRSGGITYYADSVKGRFTISRDNAKNTVYLQMNSLKPEDTAVYYFNADAYYYSTSPRGAFDWPYDYWGQGTQVNVSS
polyreactivity (PSR sort gate): low polyreactivity
--
primary-sequence: QVQLVESGGGLVQAGGSLRLSCAASGSILVEYAMGWYRQAPGKERELVAAISSNGGSTYYADSVKGRFTISRDNAKNTVYLQMNSLKPEDTAVYYCATRQSWSDYYLNVDYDYWGQGTKVTVSS
polyreactivity (PSR sort gate): low polyreactivity
--
primary-sequence: QVQLVESGGALVQAGGSLRLICAASGSIFGHNAMGWYRQAPGKERELVAAISRGTRTNYADSVKGRFTISRDNAKNTFYVQMNSLKQVDSAVYYCNLQPGRGPYVGRKYGYWGQGTQVTVSS
polyreactivity (PSR sort gate): high polyreactivity

###

test-method-notes: yeast display, Sf9 membrane polyspecificity reagent, FACS + sequencing; frameworks hold sequencing errors

primary-sequence: QVQLVESGGGLVQAGGSLRFTCAASGRTFIGYAMGWYRHAPGKERELVATISVSGGSTYYADSVKGRYTISRDNAKKTVYLHMNSLKPEDTAVYYCAKAYLRYYDGPYDYWGQGTQVTLSS
polyreactivity (PSR sort gate): low polyreactivity

primary-sequence: QVQLVESGGGLVQAGGSLRLSCSASGRTFGGNAMGWSRPAPGKERELVAAIARSGGTTYYADSVKGRFTISRDNAKNTVYLQMNSLKPEDTAVYYCNTRRYGAMYYWGQGTQVTVSS
polyreactivity (PSR sort gate): high polyreactivity

primary-sequence: QVQLVESGGGLVQAGGSLRLSCAASGFIFPYYALGWYRQAPGKEREFVAAISKTAGRTYYADSVKGRFTISRDNAKNTVYLQMNSLKPEDTAVYYCAVGNKRDAYYQYSSYGYWGQGTQVTVSS
polyreactivity (PSR sort gate): low polyreactivity

primary-sequence: QVQLVESGRGLVQAGGSLRLSCAASGSIFAFYAMGWYRPAAGKERELVAVITRSGGSTYYADSVKGRFTISRDNAKITVYLQMNSLKPEDTAVFYCAARTGYGYTRYEYWGQGTQVTVSS
polyreactivity (PSR sort gate): high polyreactivity

primary-sequence: QVQLVEAGGGLVQAGGSLRLSCAASGRTFRYYAMRWYRQATGKERELVAAITTGSSTYYADSVKGRFTISRDNAKNTVYLQMNSLKPEDTAVYYCAADHLYWGLEYESWGQGTQVTVSS
polyreactivity (PSR sort gate): low polyreactivity

###

test-method-notes: yeast display, Sf9 membrane polyspecificity reagent, FACS + sequencing; frameworks hold sequencing errors
metric: polyreactivity (PSR sort gate)

primary-sequence: QVQLVESGGGLVQAGGSLRLSCAASGFTFVRYAMGWYRQAPGKERELVAAISRRGGSTYYADSVKGRFTISRDNAKNTVYLQMNSLKPEDTAVYYCNALPRPSYPFDYWGQGTQVTVSS
metric: polyreactivity (PSR sort gate)
result: high polyreactivity

primary-sequence: QVQLVESGGGLVQAGGSLRLSCAASGRIFGVYAMGWYRQAPGKERELVAAIDRRGGTTYYADSVKGRFTISRDNAKNTVYLQMNSLKPEDTAVYYCAARSYPFIATYGYWGQGTQVTVSS
metric: polyreactivity (PSR sort gate)
result: high polyreactivity

primary-sequence: QVQLVESGGGLVQAGGSLRLSCAASGFTFHNYAMGWYRQAPGKERELVAAISASGSSTYYADSVKGRFTISRDNAKNTVYLQMNSLKPEDTAVYYCAAVGRYSPYGYWGQGTQVTVSS
metric: polyreactivity (PSR sort gate)
result: high polyreactivity

###

test-method-notes: yeast display, Sf9 membrane polyspecificity reagent, FACS + sequencing; frameworks hold sequencing errors

primary-sequence: QVQLQESGGGLVQAGGDLRLSCEASGNIFRDYIMGWYRQAPGKEREFVAGIDRGANTNYADSVKGRFTISRDNAKNTVYLQMNSLQPEDTAVYYCAVHTAIVPDFIYWGQGTQVTVRS
polyreactivity (PSR sort gate): low polyreactivity

primary-sequence: QVQLVESGGGLVQAGGSLRLSCAASGFIFSGNAMGWYRQAPGKERELVAAITWSDGSTYYADSVKGRFTISRDNAKNTVYFQINSLKPEDSAVYYCAVGALQITRYDSWGQGTQVTVSS
polyreactivity (PSR sort gate): low polyreactivity

###

test-method-notes: yeast display, Sf9 membrane polyspecificity reagent, FACS + sequencing; frameworks hold sequencing errors

primary-sequence: QVQLQESGGGLVQAGGSLRLSCAASGYISQSSVMGWYRQAPGKEREFVASISYGATTYYADSVKGRFTISRDNAKNTVYLQTNSPKPEDTAVYYCAVLVKRGFSHRYWGQGTQVTVSS
polyreactivity (PSR sort gate): high polyreactivity

primary-sequence: QVQLVESGGGLVHAGGSLRLSCAASGRTFNRYAMGWYRQAPGKERELVAAISGGGSSTSYADSVKGRFTISRDNAKNTVYLQMNSLKPEDTAVYYCAAKYGGLRYYNMYYWGQGTQVTVSS
polyreactivity (PSR sort gate): low polyreactivity

primary-sequence: QVQLVASGGGLVQAGGTLRLSCAASGRIFGRYGMGWYSQAPGKERELVAAISRSGDRTYYADSVKGRFTISRDNAKNTVYLPMNSLKPEDTAVYYCAAYSYRYDYWGQGTQVTVAS
polyreactivity (PSR sort gate): high polyreactivity

primary-sequence: KVQIVESGGGLVQAGGSLRLSCAASGRTFVVNGMGRYRQAPGKDRELVAAINTSGGSTHYADSVKGRITISRDNAKNTVYLQMNILKPEDTAVYYCAAVGYWRDYSGYWDYYYIYDYWGQGTQVNVSS
polyreactivity (PSR sort gate): low polyreactivity

primary-sequence: QVQLVESGGGLVQAGGSLRLSCAASGNTIHWNFMGWYRQATGKERELVATITFSGSSTYYADSVKGRFTISRDNAKNTVYLQMNSLKPEDTAVYYCAKDFLGDGTSIEYGGSEYDYWGQGTQVTVSS
polyreactivity (PSR sort gate): low polyreactivity

###

test-method-notes: yeast display, Sf9 membrane polyspecificity reagent, FACS + sequencing; frameworks hold sequencing errors
metric: polyreactivity (PSR sort gate)

primary-sequence: QVQLVESGGGLVQAGGSLRLSCAASGRTFATNTMGWYRQAPGKERELVAAITFSGGSTYYADSVKGRFTISRDNAKNTVYLQMNSLKREDTAVYYCNVRSPYYSYRYRYGYWGHGTQVTVSS
metric: polyreactivity (PSR sort gate)
result: high polyreactivity
//
primary-sequence: QVHLVESGGGLVQAGGSLRLSCAASGFTFLDNAMGWYRQAPGKERELVAAISGIGGSTSYADSVKGRFTISRDNAKNTVYLQMNSLKPEDTAVYYCATRWKTVGRDTIFAYDYWGQGTQVTVSS
metric: polyreactivity (PSR sort gate)
result: low polyreactivity
//
primary-sequence: QVQLVESGGGLVQAGGSLRLSCGASGNIFTRNAMGWSRQAPGKERECVAAITESGASTYYADSVKGRFTISRDNAKNTVYLQMNSLKPEDTAVYYCNARLSRWRRRPYDYWGQGTQVTVSS
metric: polyreactivity (PSR sort gate)
result: high polyreactivity
//
primary-sequence: QVHLQEIGGGLVQAGGSLRQSCAASGTISDSGLMGWYRQAPGKERELVAGISSGGITNYADSVKGRFTISRDNAKNTVYLQMNSLKPEDTAVYWGQGTQVTVSS
metric: polyreactivity (PSR sort gate)
result: low polyreactivity
//
primary-sequence: QVQLVESGGGLVQAVGSLRLSCAASGTISVANAMGWYRQAPGKERELVAVINTSGTRTYYADSVKGRFTISRDNAKNTVYLQMNSLKPEDTAVYYCAARLRGVQGYEYWGQGTQVTVSS
metric: polyreactivity (PSR sort gate)
result: low polyreactivity
//
primary-sequence: QVQLQESGGDLEQAGGSLRLSCTASGTISDVRVMGWYRQAPGKERELVATISYVTITYYADSVKGRFTISRDSEKHRVSADDEPETGRYGGVLLRYYWGLGTQVTVSS
metric: polyreactivity (PSR sort gate)
result: low polyreactivity
//
primary-sequence: QVQLVESGGGLVQAGGSLRLSCAASGRIFYFYAMGWYRQAPGKERELVAAIDWSGGSTYYADSVKGRFTISRDNAKNTVYLQMNSLKPEDTAVYSCAARWRSKGVQYYYWGQGSQVTVSS
metric: polyreactivity (PSR sort gate)
result: high polyreactivity
//
primary-sequence: QVQLVESGGGLVQAGGSLRLSCAASGSIFGRYVKGWYRQAPGKERELVATISSGGSTYYADSVKGRFTISRDNAKNTVYLQMNSLKPEDTAVYYCAASYSRFVDWIGDPGYDYWGQGTQVTVSS
metric: polyreactivity (PSR sort gate)
result: low polyreactivity
//
primary-sequence: QVQLVESGGGLVQAGGSLRLSCAASGRTFVYNAMGWSRQAPGKERELVAAITSGGSTYYADSVKGRFTISRDNAKNTVYLQMNSLKPEDTAVYYCAAYKRGYYWGQGTQVTVSS
metric: polyreactivity (PSR sort gate)
result: high polyreactivity
//
primary-sequence: QVQLVESGGGLVQAGGSLRLSCAASGSTFIRNAMGWYRPAPGKERELVAAISSSGGRTYYADSVKGRFTISRDNAKNTVYLQMNSLKPEDTAVYYCAARNARYVHTMEYWGQGTQVTVSS
metric: polyreactivity (PSR sort gate)
result: high polyreactivity
//
primary-sequence: QVQLVESGGGLVQAGGSLRLSCAASGSIFWSNAMGWYRQAPGKELELVAAITTSDGSTYYADSVKGRFTISRDNAKNTVYLQMNSLKPEDNAVYYCAADASTWYTEEYWGQGTQVTVSS
metric: polyreactivity (PSR sort gate)
result: low polyreactivity
//
primary-sequence: QDQLVDSGGGIVQAGGILSYSCDPSGSNVRYNAMGWYRQAPGKERELVAGIRGSGGITYYADSVKGRFTISRDNAKNTVYLQMNSLKPEDSAVYYCAADVVVCSYQEDHSWGQGTQVTESS
metric: polyreactivity (PSR sort gate)
result: low polyreactivity
//
primary-sequence: QVQLVETGGGLVQAGGSLRLSCAASGSIFYPNAMGWYRQAPGKERELVAAISSSGGTNYADSVKGRFTISRDNAKNTVYLQMNSLKPEDTAVYYCNARDKVRYRYSRMDYWGQGTQVTVSS
metric: polyreactivity (PSR sort gate)
result: low polyreactivity
//
primary-sequence: QVQLVESGGGLVQAGGSLRLSCAASGFTFRYYAMGWYRQAPRKERELVAAIPRNGGSTYYADTVKGRFTISRDNAKNTVYLQMKSLKPEDTAVYYCAAAYYRDSDRRFNYWGQGTQVTVSS
metric: polyreactivity (PSR sort gate)
result: high polyreactivity
//
primary-sequence: QVQLVESGGGLVQAGGSLRLSCAASGGTFVVYAMGWYRQAPGKERELVAAITWIGDSTYYADSVKGRFTISRDNAKNTVYLQMNSLKPEDTAVHYCNAEGWYYLTEYGYWGQGTQVTVSS
metric: polyreactivity (PSR sort gate)
result: low polyreactivity
//
primary-sequence: QVQLVESGGGLVQAGGSLRLSCAASGFTLTRKAMGWYRQAPGKERELVAAISRSGGSTYYADSVKGRFTISRDNAKNTVYLQMNSLKPEDTAVYYCNAGYGYGYPKYDYWGQGTQVTVSS
metric: polyreactivity (PSR sort gate)
result: high polyreactivity
//
primary-sequence: QVQLVESSGGLVQAGGSLSLSCADSGIIFYRYAMGWYIQAQGQERELVAAITWSGVSTSYADSVKGRFTISRDNAKNTVSIQMNSLKPEDTAVYYCNKDPGTLYGDMDSWGQGTQVTVSS
metric: polyreactivity (PSR sort gate)
result: low polyreactivity
//
primary-sequence: QVQLVESGGGLVQAGGSLRLSCAASGRTFYGYTMGWYRQAPGKERELVAAISRNGASTFYADSVKGRFTISRDNAKNTVYLQMNSLKPEDTAVYYCNARSWRHTDTSFEYWGQGTQVTVSS
metric: polyreactivity (PSR sort gate)
result: high polyreactivity
//
primary-sequence: QVQLVESGGGLVQAGGSLRLSCAASGSTFDIYAMGWYRPAPGKERELVAVISGGDGSTYYADSVKGRFTISRDNAKNTVYLQMNSLKPEDTAVYYCAADYISPGYWDGEYDCWGQGTQVTVSS
metric: polyreactivity (PSR sort gate)
result: low polyreactivity
//
primary-sequence: QVQLVESGGGLVQAGGSLRLSCAASGSIFGGNAMGWYRQAPGKERELVAAISGSGGSTYYADSVKGRFTISRDNAKNTVYLQMNSLKPEDTAVYYCAAGIYRGRNYYYWGQGTQVTVSS
metric: polyreactivity (PSR sort gate)
result: high polyreactivity
//
primary-sequence: QVQLVESGGGLVQAGGSLRLSCPASGFTFHHYVMGWYRPAPGKEMEFVASIRWRGGSTYYADSVKGRFTISRDNAKTTVYLQMNSLKPEDTAVYYSNADPYVYSSWQYGYWGQGTQVTVSS
metric: polyreactivity (PSR sort gate)
result: high polyreactivity
